Listed below: Minimum inhibitory concentration values for each entry.
- Test system: clinical strains of S. pneumoniae
- measurement-protocol: MIC, microdilution, clinical strains
- Type: cell-based
- test-parameters: Streptococcus pneumoniae strain 4, Muller Hinton broth-cation adjusted, 0.02% BSA, 0.2% acetic acid
Where a SMILES comes first, the peptide text is derived from it. [ ]: non-standard residue; d: D form.
Returns: the value as a bare number; no unit string appended.

Previously resolved entries follow.
Which Minimum inhibitory concentration is reported for this molecule? CC[C@@H](C)[C@@H](NC(=O)[C@@H](Cc1c[nH]c2ccccc12)NC(=O)[C@H](N)CCCCN)C(=O)N[C@@H](C(=O)N[C@H](Cc1c[nH]c2ccccc12)C(=O)N[C@H](CCCNC(=N)N)C(=O)N[C@H](Cc1c[nH]c2ccccc12)C(=O)N[C@H](CCCNC(=N)N)C(=O)N[C@H](Cc1ccccc1)C(=O)N[C@H](CCCCN)C(=O)N[C@H](CCCNC(=N)N)C(=O)O)C(C)C [Chain201D] (H-[dK][dW][dI][dV][dW][dR][dW][dR][dF][dK][dR]-OH)
4

Which Minimum inhibitory concentration is reported for this molecule? CC(C)C[C@@H](NC(=O)[C@@H](CCCCN)NC(=O)[C@@H](Cc1c[nH]c2ccccc12)NC(=O)[C@@H](CCCCN)NC(=O)[C@@H](C)NC(=O)[C@@H](Cc1c[nH]cn1)NC(=O)[C@@H](CC(C)C)NC(=O)[C@@H](CCCNC(=N)N)NC(=O)[C@@H](Cc1c[nH]c2ccccc12)NC(=O)[C@H](N)Cc1c[nH]c2ccccc12)C(=O)N[C@H](Cc1c[nH]c2ccccc12)C(=O)O [Chain109D] (H-[dW][dW][dR][dL][dH][dA][dK][dW][dK][dL][dW]-OH)
8

Which Minimum inhibitory concentration is reported for this molecule? CC[C@@H](C)[C@@H](N)C(=O)N[C@H](Cc1c[nH]c2ccccc12)C(=O)N[C@H](CCCCN)C(=O)N[C@H](CCCNC(=N)N)C(=O)N[C@H](Cc1ccccc1)C(=O)N[C@H](CCCNC(=N)N)C(=O)N[C@H](CC(C)C)C(=O)N[C@H](Cc1ccccc1)C(=O)N[C@H](CCCCN)C(=O)N[C@H](CCCCN)C(=O)N[C@H](Cc1c[nH]c2ccccc12)C(=O)O [Chain304D] (H-[dI][dW][dK][dR][dF][dR][dL][dF][dK][dK][dW]-OH)
128

---
Which Minimum inhibitory concentration is reported for this molecule? CC[C@@H](C)[C@@H](NC(=O)[C@@H](CC(C)C)NC(=O)[C@@H](CCCNC(=N)N)NC(=O)[C@H](N)CCCNC(=N)N)C(=O)N[C@H](Cc1c[nH]c2ccccc12)C(=O)N[C@H](CCCNC(=N)N)C(=O)N[C@H](CCCNC(=N)N)C(=O)N[C@H](Cc1ccccc1)C(=O)N[C@H](CCCCN)C(=O)N[C@H](Cc1c[nH]c2ccccc12)C(=O)N[C@H](CC(C)C)C(=O)N[C@H](CCCNC(=N)N)C(=O)O [Chain204D] (H-[dR][dR][dL][dI][dW][dR][dR][dF][dK][dW][dL][dR]-OH)
4

Which Minimum inhibitory concentration is reported for this molecule? CC(C)C[C@@H](NC(=O)[C@@H](Cc1c[nH]c2ccccc12)NC(=O)[C@@H](Cc1ccccc1)NC(=O)[C@@H](Cc1c[nH]c2ccccc12)NC(=O)[C@@H](CCCCN)NC(=O)[C@@H](CCCNC(=N)N)NC(=O)[C@H](N)Cc1c[nH]c2ccccc12)C(=O)N[C@H](Cc1ccccc1)C(=O)N[C@H](CCCCN)C(=O)N[C@H](CCCCN)C(=O)N[C@H](CCCNC(=N)N)C(=O)O [Chain309D] (H-[dW][dR][dK][dW][dF][dW][dL][dF][dK][dK][dR]-OH)
64

Which Minimum inhibitory concentration is reported for this molecule? CC(C)C[C@@H](NC(=O)[C@H](N)CCCNC(=N)N)C(=O)N[C@H](CCCCN)C(=O)N[C@H](Cc1c[nH]c2ccccc12)C(=O)N[C@H](Cc1ccccc1)C(=O)N[C@H](CC(C)C)C(=O)N[C@H](CC(C)C)C(=O)N[C@H](Cc1ccccc1)C(=O)N[C@H](CCCNC(=N)N)C(=O)N[C@H](CCCCN)C(=O)N[C@H](CCCNC(=N)N)C(=O)O [Chain308D] (H-[dR][dL][dK][dW][dF][dL][dL][dF][dR][dK][dR]-OH)
2
